target: murine CDH6 protein (mCDH6 ECD-his) (mouse) (UniProt P97326); experiment: ELISA, antigen coated
Sequence (P97326 19-615 limits assumed, form in doubt): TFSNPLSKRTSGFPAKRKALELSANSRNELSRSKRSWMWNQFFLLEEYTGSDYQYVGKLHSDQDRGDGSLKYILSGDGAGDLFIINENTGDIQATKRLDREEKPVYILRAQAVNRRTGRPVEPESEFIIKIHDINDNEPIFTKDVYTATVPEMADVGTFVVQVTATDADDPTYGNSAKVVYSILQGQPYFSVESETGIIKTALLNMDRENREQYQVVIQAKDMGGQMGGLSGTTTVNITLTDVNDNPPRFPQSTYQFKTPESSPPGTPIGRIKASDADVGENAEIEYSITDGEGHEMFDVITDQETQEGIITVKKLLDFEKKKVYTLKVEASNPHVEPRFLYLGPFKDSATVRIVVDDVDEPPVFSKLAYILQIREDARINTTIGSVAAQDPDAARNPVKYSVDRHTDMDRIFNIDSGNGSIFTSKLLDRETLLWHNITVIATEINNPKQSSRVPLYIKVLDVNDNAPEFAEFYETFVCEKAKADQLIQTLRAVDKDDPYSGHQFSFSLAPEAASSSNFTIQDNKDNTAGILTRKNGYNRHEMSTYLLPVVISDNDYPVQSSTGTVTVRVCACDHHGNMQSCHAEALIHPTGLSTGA
recordedEndpoint: Max OD450 (OD450)
Give your result in OD450 as a bare value.

Using the record for CHI-CDH6-14 (antibody, human IgG1, kappa, V domains shown, also called CHI- hCDH6-14) VH: QIQLQQSGPELVKPGTSVKISCKASGYTFTDNYINWVRQRPGQGLEWIGWIYPGTGNSYYNEKFKGKATLTVDTSSSTAYMQFSSLTSEDSAVYLCASSYGDSFDYWGQGTTLTVSS VL: DIQMTQTTSSLSASLGNRVTISCRASQDIRNYLNWYQQKPDGTFKLLISYTSRLHSGVPSRFSGSGSGTDYSLTVSNLEPEDIATYYCQQYSQLPWTFGGGSRLEIKR , report its Max OD450. 2.48

Can you share its Max OD450? I mean this binder: CHI-CDH6-7 (antibody, human IgG1, kappa, V domains shown) VH: EVKLVESGGGLVKPGGSLKVSCAASGFTFSDHGMAWVRQAPGKGPEWVAFISNLAYSIYYADTVTGRFTISRENAKNTLYLEMSSLRSEDTAMYYCARVYVKWYFDVWGAGTTVTVSS VL: DIQMTQSPASLSASVGETVTITCRASENIDSYLAWYQQKQGKSPQLLVFAATLLADGVPSRFSGSGSGTQYSLKINSLQSEDVARYYCQHYYSTPLTFGAGTKLELKR 2.12

Can you look up the measured Max OD450 of CHI-CDH6-4 (antibody, human IgG1, kappa, V domains shown) VH: QVQLQQSGPELVKPGASVKISCKASGYAFSNFWMNWVKQRPGKGLEWIGWIYPGDGDTNYNGKFKDKATLTADKSSSTAYIQLSSLTSEDSAVYFCARLYDAWGFFDYWGQGTTLTVSS VL: QIVLTQSPAIMSASPGQKVTITCSASSSVNYMHWYQQKLGSSPKLWIYDKSKLAPGVPARFSGSGSGTSYSLTISSMEAEDAASYFCHQWSSYPPMTFGGGTKLEIKR for me? 2.32

Please report the recorded Max OD450 for CHI-CDH6-2 (antibody, human IgG1, kappa, V domains shown) VH: EVQLQQSGPELVKPGASVRISCKASGYTFTDYYMNWVKQSHGKSLEWIGDIDPNNANTTYNQKFKGKATLTVDKSSSTAYMELRSLTSEDSAVYSCASFGYDVEWFGYWGQGTLVTVSA VL: QIVLTQSPALMSASPGEKVTMTCSASSSVSYMYWYQQKPRSSPKPWIYLTSNLASGVPARFSGSGSGTSYSLTISSMEAEDAATYYCQQWSSNPFTFGSGTKLEIKR . 1.62
